# System: rodent lifetime carcinogenesis bioassay, tumor incidence TD50
# methodDescription: carcinogenic potency in animals, long-term in vivo studies, CPDB compilation (AID 1745844)
# studyConditions: mouse; strain CF-1; females; in feed; site: liver; lesion: liver-cell tumor, type B; dosed 106 weeks; study length 106 weeks
experimentalReadout: TD50
Number plus unit, in that order.

Query: For the compound ClC1=C(Cl)[C@]2(Cl)[C@@H]3[C@@H]4C[C@@H]([C@H]5O[C@@H]45)[C@@H]3[C@@]1(Cl)C2(Cl)Cl , what TD50 is on record?
Result: 3.96 mg/kg/day

###

# Tested on: rodent lifetime carcinogenesis bioassay, tumor incidence TD50
# methodDescription: carcinogenic potency in animals, long-term in vivo studies, CPDB compilation (AID 1745844)
# studyConditions: mouse; strain Not specified; both sexes; by gavage; site: lung; lesion: adenocarcinoma; dosed 52 weeks; study length 52 weeks
experimentalReadout: TD50

Query: For the compound COc1cc(C=NNC(=O)c2ccncc2)ccc1O , what TD50 is on record?
Result: 45 mg/kg/day

###

# System: rodent lifetime carcinogenesis bioassay, tumor incidence TD50
# methodDescription: carcinogenic potency in animals, long-term in vivo studies, CPDB compilation (AID 1745844)
# studyConditions: rat; strain F344/DuCrj; males; in drinking water; site: pancreas; lesion: insuloma; dosed 108 weeks; study length 108 weeks
Active and inactive are the calls of the source. The rule behind the calls is not given here.
experimentalReadout: TD50

Query: For the compound CCCCCCCC/C=C\CCCCCCCC(=O)O , what TD50 is on record?
Result: 12600 mg/kg/day (inactive)

###

# System: rodent lifetime carcinogenesis bioassay, tumor incidence TD50
# methodDescription: carcinogenic potency in animals, long-term in vivo studies, CPDB compilation (AID 1745844)
# studyConditions: mouse; strain C3H/HeN-MTV-/Nctr (MTV-); females; in feed; site: mammary gland; lesion: adenocarcinoma, type B; dosed 107 weeks; study length 107 weeks
experimentalReadout: TD50 (mg/kg/day)
Please state the figure in mg/kg/day; there is no need to write the unit.

Query: For the molecule CC/C(=C(/CC)c1ccc(O)cc1)c1ccc(O)cc1 , what TD50 is on record?
Result: 0.0302

###

# System: rodent lifetime carcinogenesis bioassay, tumor incidence TD50
# methodDescription: carcinogenic potency in animals, long-term in vivo studies, CPDB compilation (AID 1745844)
# studyConditions: mouse; strain B6C3F1; males; inhaled; site: kidney; lesion: tubule adenoma; dosed 40 weeks; study length 104 weeks
experimentalReadout: TD50

Query: For the compound C=CC=C , what TD50 is on record?
Result: 161 mg/kg/day

###

# System: rodent lifetime carcinogenesis bioassay, tumor incidence TD50
# methodDescription: carcinogenic potency in animals, long-term in vivo studies, CPDB compilation (AID 1745844)
# studyConditions: rat; strain Fischer 344; females; in drinking water; site: clitoral gland; lesion: carcinoma + carcinoma, bilateral; dosed 98 weeks; study length 104 weeks
experimentalReadout: TD50 (mg/kg/day)
Please state the figure in mg/kg/day; there is no need to write the unit.

Query: For the compound Cc1ccc(S(=O)(=O)Oc2ccc(N=Nc3ccc(-c4ccc(N=Nc5c(O)ccc6cc(S(=O)(=O)O)cc(S(=O)(=O)O)c56)c(C)c4)cc3C)cc2)cc1 , what TD50 is on record?
Result: 8.97

###

# System: rodent lifetime carcinogenesis bioassay, tumor incidence TD50
# methodDescription: carcinogenic potency in animals, long-term in vivo studies, CPDB compilation (AID 1745844)
# studyConditions: rat; strain MRC Porton (Wistar derived); females; in feed; site: liver; lesion: one or several types; types not named; dosed 108 weeks; study length 120 weeks
experimentalReadout: TD50

Query: For the molecule CN(C)N=O , what TD50 is on record?
Result: 1.4 mg/kg/day

###

# System: rodent lifetime carcinogenesis bioassay, tumor incidence TD50
# methodDescription: carcinogenic potency in animals, long-term in vivo studies, CPDB compilation (AID 1745844)
# studyConditions: mouse; strain Swiss albino; females; in drinking water; site: liver; lesion: angiosarcoma; dosed 79 weeks; study length 79 weeks
The source made the active and inactive calls. No rule for the calls is given here.
experimentalReadout: TD50

Query: For the molecule NC(=O)NNc1ccccc1 , what TD50 is on record?
Result: 1980 mg/kg/day (inactive)

###

# System: rodent lifetime carcinogenesis bioassay, tumor incidence TD50
# methodDescription: carcinogenic potency in animals, long-term in vivo studies, CPDB compilation (AID 1745844)
# studyConditions: rat; strain Charles River CD (Sprague-Dawley); males; in drinking water; site: liver; lesion: several types; types named in the paper; dosed 104 weeks; study length 104 weeks
I'd appreciate it if you could supply TD50 values for the items below.

Query: For the compound CCCC1O[C@@H]2C[C@H]3[C@@H]4CCC5=CC(=O)C=C[C@]5(C)[C@H]4[C@@H](O)C[C@]3(C)[C@]2(C(=O)CO)O1 (stereo partly drawn) , what TD50 is on record?
Result: 0.291 mg/kg/day

Query: For the compound CC1(C)O[C@@H]2C[C@H]3[C@@H]4CCC5=CC(=O)C=C[C@]5(C)[C@@]4(F)[C@@H](O)C[C@]3(C)[C@]2(C(=O)CO)O1 , what TD50 is on record?
Result: 0.053 mg/kg/day

Query: For the compound C[C@]12C=CC(=O)C=C1CC[C@@H]1[C@@H]2[C@@H](O)C[C@@]2(C)[C@H]1CC[C@]2(O)C(=O)CO , what TD50 is on record?
Result: 1.53 mg/kg/day

###

# Tested on: rodent lifetime carcinogenesis bioassay, tumor incidence TD50
# methodDescription: carcinogenic potency in animals, long-term in vivo studies, CPDB compilation (AID 1745844)
# studyConditions: mouse; strain Swiss albino; males; in drinking water; site: liver; lesion: angiosarcoma; dosed 52 weeks; study length 52 weeks
experimentalReadout: TD50 (mg/kg/day)
Please state the figure in mg/kg/day; there is no need to write the unit.

Query: For the compound CNNC , what TD50 is on record?
Result: 0.377

###

# Tested on: rodent lifetime carcinogenesis bioassay, tumor incidence TD50
# methodDescription: carcinogenic potency in animals, long-term in vivo studies, CPDB compilation (AID 1745844)
# studyConditions: mouse; strain B6C3F1; females; by gavage; site: multiple organs; lesion: malignant lymphoma, lymphocytic type; dosed 103 weeks; study length 105 weeks
experimentalReadout: TD50 (mg/kg/day)
Please state the figure in mg/kg/day; there is no need to write the unit.

Query: For the compound ClC=C(Cl)Cl , what TD50 is on record?
Result: 4880

###

# System: rodent lifetime carcinogenesis bioassay, tumor incidence TD50
# methodDescription: carcinogenic potency in animals, long-term in vivo studies, CPDB compilation (AID 1745844)
# studyConditions: monkey; strain Rhesus [Macaca mulatta]; both sexes; several routes; site: humerus; lesion: osteosarcoma; dosed 825 weeks; study length 1182 weeks
experimentalReadout: TD50
Number plus unit, in that order.

Query: Hello, I am looking for reported TD50 with rodent lifetime carcinogenesis bioassay, tumor incidence TD50 for CNNCc1ccc(C(=O)NC(C)C)cc1 . Could you help?
Result: 32.7 mg/kg/day

###

# System: rodent lifetime carcinogenesis bioassay, tumor incidence TD50
# methodDescription: carcinogenic potency in animals, long-term in vivo studies, CPDB compilation (AID 1745844)
# studyConditions: mouse; strain Swiss albino; males; by gavage; site: lung; lesion: adenoma; dosed 53 weeks; study length 119 weeks
experimentalReadout: TD50 (mg/kg/day)
Please state the figure in mg/kg/day; there is no need to write the unit.

Query: For the compound CC(C)C/C=N/N(C)C=O , what TD50 is on record?
Result: 3.3

###

# Tested on: rodent lifetime carcinogenesis bioassay, tumor incidence TD50
# methodDescription: carcinogenic potency in animals, long-term in vivo studies, CPDB compilation (AID 1745844)
# studyConditions: rat; strain Fischer 344; males; by gavage; site: subcutaneous tissue; lesion: fibroma; dosed 104 weeks; study length 105 weeks
experimentalReadout: TD50

Query: Hello, I am looking for reported TD50 with rodent lifetime carcinogenesis bioassay, tumor incidence TD50 for COP(=O)(OC)OC . Could you help?
Result: 123 mg/kg/day

###

# System: rodent lifetime carcinogenesis bioassay, tumor incidence TD50
# methodDescription: carcinogenic potency in animals, long-term in vivo studies, CPDB compilation (AID 1745844)
# studyConditions: rat; strain Charles River CD (Sprague-Dawley); males; by gavage; site: thyroid gland; lesion: follicular-cell adenoma; dosed 104 weeks; study length 104 weeks
experimentalReadout: TD50

Query: Hello, I am looking for reported TD50 with rodent lifetime carcinogenesis bioassay, tumor incidence TD50 for CC(C)n1c(/C=C/[C@H](O)C[C@H](O)CC(=O)O)c(-c2ccc(F)cc2)c2ccccc21 . Could you help?
Result: 125 mg/kg/day

###

I'd appreciate it if you could supply TD50 values for the items below.
# Tested on: rodent lifetime carcinogenesis bioassay, tumor incidence TD50
# methodDescription: carcinogenic potency in animals, long-term in vivo studies, CPDB compilation (AID 1745844)
# studyConditions: rat; strain Fischer 344; males; by gavage; site: lung; lesion: several types; types named in the paper; dosed 40 weeks; study length 104 weeks

Query: Hello, I am looking for reported TD50 with rodent lifetime carcinogenesis bioassay, tumor incidence TD50 for CCCCN(N=O)C(N)=O . Could you help?
Result: 0.187 mg/kg/day

Query: Hello, I am looking for reported TD50 with rodent lifetime carcinogenesis bioassay, tumor incidence TD50 for NC(=O)N(CCF)N=O . Could you help?
Result: 0.279 mg/kg/day
